In this section, each of the variants is paired with its reported scaled log2 fold change.
B1: library; numbered along this chain (parent)
chain: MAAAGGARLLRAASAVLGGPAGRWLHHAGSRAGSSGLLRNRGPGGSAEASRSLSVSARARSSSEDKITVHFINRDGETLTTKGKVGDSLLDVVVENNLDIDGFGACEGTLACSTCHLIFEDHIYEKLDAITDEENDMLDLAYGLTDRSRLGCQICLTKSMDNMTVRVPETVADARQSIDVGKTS

Variants of: B1
Assay: scaled log2 fold change in cell abundance, elesclomol vs control (0 = silent mean, 1 = nonsense mean) (scaled log2 ratio); higher = higher viability under elesclomol (loss of FDX1 cuproptosis function);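 note: variant abundance is its share of total variant reads in each endpoint sample, from next-generation sequencing of the integrated ORF PCR-amplified out of genomic DNA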
Conditions: with HEK293T FDX1 KO; elesclomol 40 nM; glucose 10 mM; 11 days
Reply with just the number.

Fill blank: measured scaled log2 fold change of the variant `S56I` is ____.
-0.305

Others:
Fill blank: measured scaled log2 fold change of the variant `K182N` is ____.
0.75

Fill blank: measured scaled log2 fold change of the variant `F119P` is ____.
0.628

Fill blank: measured scaled log2 fold change of the variant `Q153A` is ____.
-0.209

Fill blank: measured scaled log2 fold change of the variant `A59L` is ____.
0.562

Fill blank: measured scaled log2 fold change of the variant `L144D` is ____.
-0.877
